Experiment: in vivo
Conditions: mouse, in vivo, ip
What TD50 was measured for each of the following?
Give bare numbers, in mg/kg.

{"columns": ["Compound", "TD50 [mg/kg]"],
 "data": [
  ["O=c1ccc2ccccc2n1CCCN1CCN(c2nsc3ccccc23)CC1 [Example 5]", 83.3],
  ["CN(C)CCCN1c2ccccc2Sc2ccc(Cl)cc21 [Chlorpromazine, chlorpromazine]", 6.2]
]}

Now for a further compound.
Give the measured TD50 of O=C(CCCN1CCC(O)(c2ccc(Cl)cc2)CC1)c1ccc(F)cc1 [Haloperidol, haloperidol] .
1.3
